- ASSAY_REMARKS: oral pharmacokinetics in male CD1 mice (plasma, LC/MS/MS)
- Type: in vivo
- CONDITIONS_USED: mouse, oral 10 mg/kg, plasma
ASSAY_READOUT: Cmax

* NS(=O)(=O)c1ccc(Cc2c(-c3cccc(-c4ccccc4)c3)nn(-c3nc(C(=O)O)cs3)c2C(F)(F)F)cc1 | 159 ng/mL

###

- SYSTEM_TESTED: Human LDHA (Homo sapiens (Human))
- ASSAY_REMARKS: human LDHA primary biochemical assay (resazurin/diaphorase coupled, fluorescence)
- CONDITIONS_USED: read-out: Inhibitory activity IC50
pIC50: −log10 of the molar value.
ASSAY_READOUT: pIC50

* O=C(O)c1csc(-n2nc(-c3cccc(-c4ccccc4F)c3)cc2O)n1 | < 4.24
* CCOC(=O)c1coc(-n2nc(-c3ccccc3)c(Cc3ccc(S(N)(=O)=O)cc3)c2N)n1 | 4.24 to 6.00
* NS(=O)(=O)c1ccc(Oc2cn(-c3nc(C(=O)O)cs3)nc2-c2ccccc2)cc1 | > 7.00
* Cn1cc(-c2cc(-c3c(Cc4ccc(S(N)(=O)=O)c(F)c4)c(CC4CC4)nn3-c3nc(C(=O)O)cs3)ccc2F)cn1 | < 4.24

###

- SYSTEM_TESTED: Human LDHA (Homo sapiens (Human))
- ASSAY_REMARKS: human LDHA primary biochemical assay (resazurin/diaphorase coupled, fluorescence)
- CONDITIONS_USED: LDHA inhibitory activity, assay of Example 1; activity level classes
ASSAY_READOUT: IC50

* CCOC(=O)c1csc(-n2nc(-c3ccc(F)c(-c4cccc(F)c4)c3)c(Cc3ccc(S(N)(=O)=O)c(F)c3)c2CC2CC2)n1 | > 57 µM
* CCOC(=O)c1csc(-n2nc(-c3ccc(F)c(-c4cccc(F)c4)c3)c(Cc3ccc(S(N)(=O)=O)cc3F)c2CC2CC2)n1 | 1 to 57 µM
* CCOC(=O)c1csc(-n2nc(CC3CC3)c(Cc3ccc(S(N)(=O)=O)cc3F)c2-c2ccc(F)c(-c3cccc(F)c3)c2)n1 | > 57 µM

###

- SYSTEM_TESTED: Human LDHA (Homo sapiens (Human))
- ASSAY_REMARKS: human LDHA primary biochemical assay (resazurin/diaphorase coupled, fluorescence)
- CONDITIONS_USED: read-out: Inhibitory activity IC50
- Description: Test compounds were placed in a Greiner Bio-One (Monroe, N.C.) 1536-well black solid bottom assay plate. 200 millimolar (mM) Tris HCl, pH 7.4, 100 micromolar […] EDTA and 0.01% TWEEN-20™, final concentration, was used as the assay buffer. The LDHA reagent was 2 nanomolar (nM) Human LDHA (Meridian Life Science, Inc., Memphis, Tenn.), final concentration, in assay buffer.
pIC50: −log10 of the molar value. Structures can show the parent of a compound that is named as a salt.
Each entry below carries its recorded pIC50.
ASSAY_READOUT: pIC50

- Cn1cc(-c2cc(-c3nn(-c4nc(C(=O)O)cs4)c(CC4CC4)c3Cc3ccc(S(N)(=O)=O)cc3F)ccc2F)cn1: > 7.00
- NS(=O)(=O)c1ccc(Cc2c(-c3ccccc3)nn(-c3nc(CO)cs3)c2C(F)(F)F)cc1: 4.24 to 6.00
- N[S+](=O)([O-])c1ccc(Cc2c(CC3CC3)nn(-c3nc(C(=O)O)cs3)c2-c2cccc(-c3ccccc3)c2)cc1F: 4.24 to 6.00
- Cc1cnc(-c2cc(-c3nn(-c4nc(C(=O)O)cs4)c(CC4CC4)c3Cc3ccc(S(N)(=O)=O)c(F)c3)ccc2F)s1 [Compound 231, TFA]: > 7.00
- Cn1cc(-c2cc(-c3nn(-c4nc(C(=O)O)cs4)c(CC4CC4)c3Cc3ccc(S(N)(=O)=O)c(F)c3)ccc2F)cn1: > 7.00
- NS(=O)(=O)c1ccc(Oc2c(C3CC3)nn(-c3nc(C(=O)O)cs3)c2-c2ccccc2)cc1: 4.24 to 6.00
- CCOC(=O)c1csc(-n2nc(-c3ccccc3)c(Oc3ccc(S(N)(=O)=O)cc3)c2C2CC2)n1: 4.24 to 6.00
